FYI, the data here is from PubChem BioAssay AID2170.

System: M18 aspartyl aminopeptidase (Plasmodium falciparum 3D7)
Test: PfM18AAP inhibitors, malaria aminopeptidase, confirmation, biochemical, QFRET, recombinant enzyme, triplicate (AID 2170);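 also: 0% = median of test compound wells and 100% = 2 mM ZnCl2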
Conditions: H-Glu-NHMec fluorogenic cleavage, at 7.35 µM, active compounds read high
Hit rate of the full screen: of about 2,400 compounds, about 660 (28%) were called active. The list is a sample of the results.
Value Type: inhibition (%)
Numbers only, in %.

Compound	inhibition, %
ONC(=Nc1ccccc1)c1ccccc1Cl	-2.39
N#CCC(=O)N/N=C/c1ccc(SCC(=O)Nc2ccccc2)o1	-37.9
COc1ccc(N/C=C(\C2OC(=O)c3ccccc32)[N+](=O)[O-])cc1 (stereo not given)	-36.7
CCN(CC)c1ccc(NC(=O)CCc2nnc3ccc(N4CCCCC4)nn23)c(C)c1	-12.9
c1ccc2sc(NN=C3CCCC3)nc2c1	-44.4

Parameter requested: inhibition. Apply to each item below.
1. CCOc1ccc(C2C3=C(CCCC3=O)N(CC(=O)O)C3=C2C(=O)CCC3)cc1
2. Cc1nc2nc[nH]n2c(=O)c1C/C=C/c1ccccc1
3. Cc1cc(-c2ccc(/C=N/n3cnnc3)o2)c([N+](=O)[O-])cc1C
4. COc1cc(/C=N\Nc2ccc([N+](=O)[O-])cn2)ccc1OCC(=O)O
5. O=[N+]([O-])c1ccc(N2CCN(c3ccc(O)cc3)CC2)c(Cl)c1

Reply:
-43.7
50.7
0.8
-18
-3.08

###

Test system: M18 aspartyl aminopeptidase (Plasmodium falciparum 3D7)
Experiment: PfM18AAP inhibitors, malaria aminopeptidase, confirmation, biochemical, QFRET, recombinant enzyme, triplicate (AID 2170);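 also: 0% = median of test compound wells and 100% = 2 mM ZnCl2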
Conditions: H-Glu-NHMec fluorogenic cleavage, at 7.35 µM, active compounds read high
Hit rate of the full screen: of about 2,400 compounds, about 660 (28%) were called active. Only a sample is shown.
Quick rule for you: inhibition at 20% or higher means Yes, lower means No.

Field: example entries. Status: answers known.
Record Smiles	Label Value
O=c1nc(N/N=C/c2ccco2)cn[nH]1	No
Cc1csc(NC(=O)NC2(C(F)(F)F)Oc3ccccc3O2)n1	Yes

Task item: Test whether the compound CCN(CC)c1ccc(/C=N/Nc2nc(C)cc(C)n2)c(O)c1 records inhibition of 20% or higher.
Reply: No

Task item: Test whether the compound O=C(Oc1ccc(Br)cc1C(=S)N1CCOCC1)c1cccc([N+](=O)[O-])c1 records inhibition of 20% or higher.
Reply: No

Task item: Test whether the compound Cc1ccc(Cl)cc1-c1ccc(/C=N/n2cnnc2)o1 records inhibition of 20% or higher.
Reply: No

###

Give measured inhibition for each item. Keep answers brief.
Test system: M18 aspartyl aminopeptidase (Plasmodium falciparum 3D7)
Assay: PfM18AAP inhibitors, malaria aminopeptidase, confirmation, biochemical, QFRET, recombinant enzyme, triplicate (AID 2170);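 also: 0% = median of test compound wells and 100% = 2 mM ZnCl2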
Details: H-Glu-NHMec fluorogenic cleavage, at 7.35 µM, active compounds read high
Out of some 2,400 compounds screened, about 660 (28%) were called active. These entries were drawn from the full list.
Give bare numbers, in %.

Examples with their reported inhibition follow.
Compound	inhibition (%)
Oc1ccc(-c2csc(Nc3cccnc3)n2)cc1	56.6
COc1cc(Br)cc(/C=N/c2ncn[nH]2)c1O	62.9
Cc1ccc2nc(-c3cccc(Br)c3)cc(C(=O)Nn3cnnc3)c2c1	63.4
O=C(CC(n1cncn1)C(Cl)(Cl)Cl)c1ccc([N+](=O)[O-])cc1 (configuration not stated)	-9.53
COc1ccc2c(c1)C(C)=CC(C)(C)N2C(=O)Nc1ccccc1	-22.9
O=C(CO/N=C/c1ccccc1O)NNC(=O)c1ccccc1Cl	42.3
ClC1(Cl)CC1CSc1ncn[nH]1 (configuration not stated)	11.5
Oc1ccc(N2CCN(C(=S)NCc3ccccc3)CC2)cc1	-12.9
c1ccc2c(c1)OCC(c1nn3cnnc3s1)O2 (configuration not stated)	-28.2
O=C(NNC(=O)c1ccco1)Nc1ccccc1	17.1

Parameter requested: inhibition. Apply to each item below.
1. O=C(Nc1ccccc1Cl)Nn1cnnc1
2. CC(C)(C)NC(=O)C(c1ccncc1)N(C(=O)CNC(=O)c1ccco1)c1ccc2c(c1)OCO2 (configuration not stated)
3. CC(OC(=O)c1ccc2noc(-c3ccccc3)c2c1)C(N)=O (configuration not stated)
4. CCOc1ccc(-n2c(O)c(/C=N/Nc3nnc(C)c(=O)[nH]3)c3ccccc3c2=O)cc1
5. CNC(=S)NNC(=O)c1ccc(N(C)C)cc1
6. Cc1cc2nc3c(=O)n(Cc4ccccc4)c(=O)[nH]c3nc2cc1N

Reply:
1. 65.9
2. -44.5
3. -28.2
4. 12.4
5. 12.2
6. 7.01

Parameter requested: inhibition. Apply to each item below.
1. Cc1ccc(-c2ccc(/C=C(\C#N)C(N)=S)o2)c([N+](=O)[O-])c1
2. COc1cc(/C=N/Nc2nn3cnnc3c3ccccc23)cc(OC)c1OC
3. O=C(CSc1ncn[nH]1)Nc1nc(-c2cccc([N+](=O)[O-])c2)cs1
4. Cc1cc(C)nc(NNC2=CC(=O)CC(C)(C)C2)n1
5. CC(C)C1N=C2c3ccccc3N=C(SCC(=O)c3ccc(O)c(O)c3)N2C1=O (configuration not stated)
6. Cc1ccc(-c2noc(CC(c3ccccc3)c3ccccc3)n2)cc1

Reply:
-32.7
-33.8
36.5
44.3
39
-39.5

Parameter requested: inhibition. Apply to each item below.
1. NC(=O)C1CCN(C(=O)/C(=C/c2ccco2)NC(=O)c2ccccc2)CC1
2. Cc1nc2ccc(S(=O)(=O)NCC(=O)O)cc2s1
3. COc1cc(/C=C2/C(=O)NN(c3cccc(Cl)c3)C2=O)cc(Br)c1O
4. Cc1cc2c(C)nc(N/N=C/c3ccccc3)nc2o1
5. Cn1sc(=O)c2cc(S(=O)(=O)NC3CC3)ccc21
6. NC(=O)c1c(Nc2nc3c(F)cccc3s2)sc2c1CCCC2
7. c1ccc(-c2ccc3c(c2)NC(C2Nc4cc(-c5ccccc5)ccc4O2)O3)cc1 (configuration not stated)

Reply:
[-45.2, 12.5, 12.9, -42.8, -11.8, -18.3, -52.4]

Parameter requested: inhibition. Apply to each item below.
1. CCCc1nc2ccccc2c(=O)n1/N=C/c1ccc(O)c(O)c1
2. Cc1nnc(SCC(=O)Nn2cnnc2)s1
3. NC(=S)N/N=C/c1coc2cc(Cl)ccc2c1=O
4. CC1(C)CC(=O)C/C(=N\NC(=O)c2cccs2)C1
5. Cc1onc(-c2ccccc2)c1C(=O)NNC(=S)NC(=O)c1ccc(F)cc1
6. OCCN1CCN(C(=S)c2ccc(-c3ccccc3)cc2)CC1
7. O=C(O)CCn1c(O)c(C=C2N=c3ccccc3=N2)sc1=S

Reply:
28.4
29.1
-23.6
3.68
-38.8
14.5
-42.5

Parameter requested: inhibition. Apply to each item below.
1. CCOCCCNC(=O)c1ccc(CS(=O)(=O)c2cccc(C(F)(F)F)c2)o1
2. S=c1[nH]nc2c3c4c(sc3ncn12)CCCC4
3. Oc1cccc(/C=N/Nc2ccc(Cl)nn2)c1O
4. CC(C)(C)c1nnc(N/N=C/c2ccc(O)cc2)n(N)c1=O
5. O=C(Nn1cnnc1)c1cc(Cl)ccc1Cl

Reply:
1: -29.5; 2: -11.8; 3: 20.8; 4: -22.7; 5: 55.1

Parameter requested: inhibition. Apply to each item below.
1. COc1ccc(/C=N/Nc2nc3ccccc3o2)cc1OC
2. O=C(O)c1cccc(NC(=S)N/N=C/c2c[nH]c3ccccc23)c1
3. Cc1ccc(S(=O)(=O)N/N=C\c2cc3c(cc2[N+](=O)[O-])OCO3)cc1
4. CC/C(C)=N/Nc1nc2sc3c(c2c(=O)[nH]1)CC(C)(C)OC3

Reply:
[-38.4, 3.61, -7.72, 9.57]

Parameter requested: inhibition. Apply to each item below.
1. O=C(CSc1ncn[nH]1)Nc1ccnc2ccccc12
2. CC1CCN(C(=O)c2ccc3c(c2)NC(=O)CN3)CC1

Reply:
8.46
-7.91
